Data origin, for the record: patent US5593984A

A short record of MIC observed with Staph. aureus C-5216 follows.
PROPERTY_NAME: MIC (µg/mL)

MOLECULE	PROPERTY_NAME	RECORDED_NUMBER
CCO/N=C(\C(=O)N[C@@H]1C(=O)N2C(C(=O)[O-])=C(C[n+]3ccn4c(Br)ccc4c3C)CS[C@H]12)c1csc(N)n1	MIC	3.13
CON=C(C(=O)NC1C(=O)N2C(C(=O)[O-])=C(C[n+]3ccn4ccc(CO)c4c3)CSC12)c1csc(N)n1 (stereo not shown)	MIC	0.78
CON=C(C(=O)NC1C(=O)N2C(C(=O)[O-])=C(C[n+]3ccn4c(C(C)=O)ccc4c3)CSC12)c1csc(N)n1 (stereo not shown)	MIC	1.56
CO/N=C(\C(=O)N[C@@H]1C(=O)N2C(C(=O)[O-])=C(C[n+]3ccn4c(CO)ccc4c3)CS[C@H]12)c1nsc(N)n1	MIC	0.78
CON=C(C(=O)NC1C(=O)N2C(C(=O)[O-])=C(C[n+]3ccn4cccc4c3)CSC12)c1csc(N)n1 (stereo not shown)	MIC	0.78
CO/N=C(\C(=O)N[C@@H]1C(=O)N2C(C(=O)[O-])=C(C[n+]3ccn4c(C(C)C)cc(C(C)C)c4c3)CS[C@H]12)c1csc(N)n1	MIC	6.25
CO/N=C(\C(=O)N[C@@H]1C(=O)N2C(C(=O)[O-])=C(C[n+]3ccn4cccc4c3)CS[C@H]12)c1nc(N)sc1Cl	MIC	0.2
